// provenance: the supplement of paper PMC11061612

// reported combination Emax for each item listed
# Tested on: NCI-H1944 (Lung Adenocarcinoma)
# Protocol: combination Emax (second highest fraction inhibited in the dose matrix, 72 h); higher = more inhibition; extreme values may be limits of the assay
Quantity Name: combination Emax

[
  {
    "Molecule": "Cc1c2c(nn1C)CSCc1cc(n(C)n1)CSc1cc(c3ccccc3c1)OCCCc1c(C(=O)O)n(C)c3c-2c(Cl)ccc13 [AZD5991] + C1CN(CCC1(C(=O)N[C@@H](CCO)C2=CC=C(C=C2)Cl)N)C3=NC=NC4=C3C=CN4 [Capivasertib] (first compound max 1 µM, 7x7, partner max 3 µM)",
    "Quantity Name": "combination Emax",
    "Recorded Value": 0.344
  },
  {
    "Molecule": "CN(C)CCCOc1ccc(-c2ccc3ncc4c(c3c2)n(C2CCOCC2)c(=O)n4C)cn1 [AZD0156] + CCN(CCO)CCCOc1ccc2c(Nc3cc(CC(=O)Nc4cccc(F)c4)[nH]n3)ncnc2c1 [AZD2811] (first compound max 1 µM, 7x7, partner max 1 µM)",
    "Quantity Name": "combination Emax",
    "Recorded Value": 0.205
  },
  {
    "Molecule": "COc1nnc2ccc(N3CCC(c4ccc(OCCN5CCN(C)C(=O)[C@H]5C)cc4)CC3)nn12 [AZD5153] + Cn1cnc2c(F)c(Nc3ccc(Br)cc3Cl)c(C(=O)NOCCO)cc21 [Selumetinib] (first compound max 1 µM, 7x7, partner max 10 µM)",
    "Quantity Name": "combination Emax",
    "Recorded Value": 0.717
  },
  {
    "Molecule": "C[C@@H](c1ccc2nccn2c1)n1nnc2ncc(-c3cnn(C)c3)nc21 [Savolitinib] + Cc1c2c(nn1C)CSCc1cc(n(C)n1)CSc1cc(c3ccccc3c1)OCCCc1c(C(=O)O)n(C)c3c-2c(Cl)ccc13 [AZD5991] (first compound max 1 µM, 7x7, partner max 1 µM)",
    "Quantity Name": "combination Emax",
    "Recorded Value": 0.184
  }
]
